# measuredOn: NHERF4_4, Q86UT5
# Sequence (Q86UT5 464-550): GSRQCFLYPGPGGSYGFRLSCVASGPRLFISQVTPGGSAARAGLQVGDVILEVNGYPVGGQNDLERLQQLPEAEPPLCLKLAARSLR
# testDetails: holdup assay
# Set-up: key: below the threshold = too weak to quantify, mostly under pKd 3.1 to 4
# assayContext: plain residues with an end cap or a label only (N-terminal biotin on a linker: ahx)
attributeMeasured: pKd

Use these answered entries as a reference point.
binder	pKd
AKPQPVDSWV [ARVCF, O00192]	below the threshold
PKMKLNETSF [SHKBP1, Q8TBC3]	below the threshold
HSATSVHTSV [MTMR1, Q13613]	below the threshold
SKKNELFSNL [NHERF1, O14745]	below the threshold
VNENQKEYFF [CNTNAP4, Q9C0A0]	4.1

Now, please, on to the next binder.
Form field: reported pKd of YNSFLSVTTV [PDZRN3, Q9UPQ7] 3.49
